- System: Myotonic Dystrophy 1 affected patient fibroblasts (Coriell GM04602; 1600 CTG repeats)
- TEST DETAILS: DM1 foci reduction assay (CAG10-Cy3 FISH, average foci per nucleus)
- Assay type: cell-based
- CONDITION LABEL: Homo sapiens, Fibroblast, 48 h, read-out: Foci Reduction in Fibroblast EC50, 48 h (nM)
QUANTITY NAME: EC50

Problem: Observed EC50 on Myotonic Dystrophy 1 affected patient fibroblasts (Coriell GM04602; 1600 CTG repeats) for CC(C)CN(CCCC[C@H](NC(=O)[C@H](CCCN1CCOCC1)NC(=O)[C@@H](NC(=O)[C@H](Cc1ccccc1)NC(=O)c1ccc(C(C)(C)C)cc1)C1CCC1)C(=O)N[C@@H](CO)C(=O)NCCOCCOCCOCCOCCOCCNC(=O)CCNC(=O)c1nc(NC(=O)c2cc(NC(=O)CCNC(=O)c3nc(NC(=O)CCCNC(=O)c4cc(NC(=O)c5nc(NC(=O)CCNC(=O)c6cc(NC(=O)c7nccn7C)cn6C)cn5C)cn4C)cn3C)cn2C)cn1C)C1CC2CCC1C2 (stereo partly drawn) , please.
Solution: > 500 nM

Problem: What measured EC50 is associated with `CCN(CC)CCCC[C@H](NC(=O)Cc1nc2cc(CC(=O)Nc3ccc(C(C)(C)C)cc3)cnc2[nH]1)C(=O)N[C@@H](CO)C(=O)NCCOCCOCCOCCOCCOCCNC(=O)CCNC(=O)c1nc(NC(=O)c2cc(NC(=O)CCNC(=O)c3nc(NC(=O)CCCNC(=O)c4cc(NC(=O)c5nc(NC(=O)CCNC(=O)c6cc(NC(=O)c7nccn7C)cn6C)cn5C)cn4C)cn3C)cn2C)cn1C` on Myotonic Dystrophy 1 affected patient fibroblasts (Coriell GM04602; 1600 CTG repeats)?
Solution: 100 to 500 nM

Problem: Short answer please: EC50, Myotonic Dystrophy 1 affected patient fibroblasts (Coriell GM04602; 1600 CTG repeats), entry `CCN(CC)CCCC[C@H](NC(=O)[C@H](CC(C)C)NC(=O)[C@H](C)NC(=O)[C@H](Cc1ccccc1)NC(=O)c1ccc(C(C)(C)C)cc1)C(=O)N[C@@H](CO)C(=O)NCCOCCOCCOCCOCCN1CCN(C2CCN(C(=O)CCNC(=O)c3nc(NC(=O)c4cc(NC(=O)CCNC(=O)c5nc(NC(=O)CCCNC(=O)c6cc(NC(=O)c7nc(NC(=O)CCNC(=O)c8cc(NC(=O)c9nccn9C)cn8C)cn7C)cn6C)cn5C)cn4C)cn3C)CC2)CC1`
Solution: > 500 nM

---

For each record, write down the corresponding EC50.
- System: Myotonic Dystrophy 1 affected patient fibroblasts (Coriell GM04602; 1600 CTG repeats)
- TEST DETAILS: DM1 foci reduction assay (CAG10-Cy3 FISH, average foci per nucleus)
- Type: cell-based
- CONDITION LABEL: Homo sapiens, Fibroblast, 48 h, read-out: Foci Reduction in Fibroblast EC50, 48 h (nM)

Problem: What value of EC50 has been reported for the following compound? `CCN(CC)CCCC[C@H](NC(=O)[C@H](CC(C)C)NC(=O)[C@H](C)NC(=O)[C@H](Cc1ccccc1)NC(=O)c1ccc(C(C)(C)C)cc1)C(=O)N[C@@H](CO)C(=O)NCCOCCOCCN(C)C(=O)CCNC(=O)c1nc(NC(=O)c2cc(NC(=O)CCNC(=O)c3nc(NC(=O)CCCNC(=O)c4cc(NC(=O)c5nc(NC(=O)CCNC(=O)c6cc(NC(=O)c7nccn7C)cn6C)cn5C)cn4C)cn3C)cn2C)cn1C`
Solution: < 100 nM

Problem: Fill in the blank: the reported EC50 of `CCN(CC)CCCC[C@H](NC(=O)[C@H](CC(C)C)NC(=O)[C@H](C)NC(=O)[C@H](Cc1ccccc1)NC(=O)c1ccc(C(C)(C)C)cc1)C(=O)N[C@@H](CO)C(=O)NCCOCCOCCOCCOCCOCCNC(=O)c1nc(NC(=O)CCNC(=O)c2cc(NC(=O)c3nc(NC(=O)CCNC(=O)c4cc(NC(=O)c5nc(NC(=O)CCNC(=O)c6cccn6C)cn5C)cn4C)cn3C)cn2C)cn1C` is ____.
Solution: > 500 nM

Problem: Endpoint output: EC50 of `CCN(CC)CCCC[C@H](NC(=O)[C@H](CC(C)C)NC(=O)[C@H](C)NC(=O)[C@H](Cc1ccccc1)NC(=O)c1ccc(C)cc1)C(=O)N[C@@H](CO)C(=O)NCCOCCOCCOCCOCCOCCNC(=O)CCNC(=O)c1nc(NC(=O)c2cc(NC(=O)CCNC(=O)c3nc(NC(=O)CCCNC(=O)c4cc(NC(=O)c5nc(NC(=O)CCNC(=O)c6cc(NC(=O)c7nccn7C)cn6C)cn5C)cn4C)cn3C)cn2C)cn1C` . Value?
Solution: < 100 nM

---

- System: Myotonic Dystrophy 1 affected patient fibroblasts (Coriell GM04602; 1600 CTG repeats)
- TEST DETAILS: DM1 foci reduction assay (CAG10-Cy3 FISH, average foci per nucleus)
- Assay type: cell-based
- CONDITION LABEL: Homo sapiens, Fibroblast, 48 h, read-out: Foci Reduction in Fibroblast EC50, 48 h (nM)
QUANTITY NAME: EC50

Problem: Given `CCN(CC)CCCC[C@H](NC(=O)[C@H](CC(C)C)NC(=O)[C@H](C)NC(=O)[C@H](Cc1ccccc1)NC(=O)c1ccc(C(C)(C)C)cc1)C(=O)N[C@@H](CO)C(=O)NCCOCCOCCOCCOCCOCCNC(=O)c1cc(NC(=O)c2cc(NC(=O)c3nc(NC(=O)c4cc(NC(=O)[C@@H](N)CCNC(=O)c5nc(NC(=O)CCNC(=O)c6cc(NC(=O)c7nccn7C)cn6C)cn5C)cn4C)cn3C)cn2C)cn1C` , state its recorded EC50.
Solution: > 500 nM

Problem: Fill in the blank: the reported EC50 of `CCN(CC)CCCC[C@H](NC(=O)CCCCNC(=O)c1cnn(-c2ccc(C(C)(C)C)cc2)c1)C(=O)N[C@@H](CO)C(=O)NCCOCCOCCOCCOCCOCCNC(=O)CCNC(=O)c1nc(NC(=O)c2cc(NC(=O)CCNC(=O)c3nc(NC(=O)CCCNC(=O)c4cc(NC(=O)c5nc(NC(=O)CCNC(=O)c6cc(NC(=O)c7nccn7C)cn6C)cn5C)cn4C)cn3C)cn2C)cn1C` is ____.
Solution: > 500 nM

Problem: I am curious: what EC50 value has been reported for `CCN(CC)CCCC[C@H](NC(=O)[C@H](CC(C)C)NC(=O)[C@H](C)NC(=O)[C@H](Cc1ccccc1)NC(=O)c1ccc(C(C)(C)C)cc1)C(=O)N[C@@H](CO)C(=O)NCCOCCOCCOCCOCCOCCNC(=O)c1nc(NC(=O)CCNC(=O)c2cc(NC(=O)c3nc(NC(=O)CCCNC(=O)c4nc(NC(=O)c5nc(CC(=O)CCNC(=O)c6cc(NC(=O)c7nccn7C)cn6C)cn5C)cn4C)cn3C)cn2C)cn1C` ?
Solution: > 500 nM

Problem: Look up EC50 for this molecule: `CCN(CC)CCCC[C@H](NC(=O)[C@H](CC(C)C)NC(=O)[C@H](C)NC(=O)[C@H](Cc1ccccc1)NC(=O)c1ccccc1)C(=O)N[C@@H](CO)C(=O)NCCOCCOCCOCCOCCOCCNC(=O)c1cc(NC(=O)c2cc(NC(=O)c3nc(NC(=O)c4cc(NC(=O)[C@@H](N)CCNC(=O)c5nc(NC(=O)CCNC(=O)c6cc(NC(=O)c7nccn7C)cn6C)cn5C)cn4C)cn3C)cn2C)cn1C`
Solution: > 500 nM

Problem: Could you share which EC50 value was measured for `CCN(CC)CCCC[C@H](NC(=O)[C@H](CC(C)C)NC(=O)[C@H](C)NC(=O)[C@H](Cc1ccccc1)NC(=O)c1ccc(C(C)(C)C)cc1)C(=O)N[C@@H](CO)C(=O)NCCOCCOCCOCCOCCOCC(=O)N[C@H](CCNC(=O)c1cc(NC(=O)c2nc(NC(=O)CCNC(=O)c3cc(NC(=O)c4nccn4C)cn3C)cn2C)cn1C)C(=O)Nc1cn(C)c(C(=O)Nc2cc(C(=O)NCCC(=O)Nc3cn(C)c(C(=O)Nc4cc(C(=O)NCCO)n(C)c4)n3)n(C)c2)n1` ?
Solution: > 500 nM
